Attribution: patent US11008334B2

# SYSTEM_TESTED: K-RasG12C (1-169) (Homo sapiens, UniProt P01116, G12C)
# Construct: Un-tagged recombinant K-Ras G12C (1-169) at 4 μM in Buffer A; hexahistidine (cleaved yes); made in house; host or cells: Escherichia coli BL21 (DE)
# Sequence (P01116 1-169 isoform P01116-2 G12C): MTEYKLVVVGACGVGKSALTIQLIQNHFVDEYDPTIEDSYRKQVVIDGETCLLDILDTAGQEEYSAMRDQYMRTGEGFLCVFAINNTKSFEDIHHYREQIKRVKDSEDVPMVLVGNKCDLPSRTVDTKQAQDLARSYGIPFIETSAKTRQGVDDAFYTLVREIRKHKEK
# TEST_SUMMARY: Mass spectrometric screen for extent of covalent labeling
# Type: binding
# CONDITION_CONTEXT: 24 h, 10 micromolar, 24 hrs; read-out: Percent reduction in activity of compound at 10 micromolar relative to control (no compound), 24 hrs
Reported percent covalent labeling at 10 µM values are given for each entry in this list.

C=CS(=O)(=O)NC1CCN(C(=O)COc2c(Br)cc(Br)c3c2OC(C)(C)O3)CC1 [UP-I-177D]: > 60%
C=CS(=O)(=O)NC1CCN(C(=O)CN(C)c2cc(Cl)c(Cl)cc2I)CC1 [Ras-052]: 5 to 20%
C=CS(=O)(=O)NC1CCN(C(=O)[C@@H](C)Oc2ccc(Cl)cc2Cl)CC1 [JO-02-115C]: ≤ 5%
C=CS(=O)(=O)NC1CCN(C(=O)CNc2cc(I)c(Cl)cc2O)CC1 [Ras-084]: > 60%
C=CS(=O)(=O)NC1CCN(C(=O)COc2ccc(Cl)cc2CN)CC1 [Ras-032]: ≤ 5%

Note: attention shifts to another entry.
Query :: Look up percent covalent labeling at 10 µM for this compound: C=CS(=O)(=O)NC1CCN(C(=O)CSc2ccc(Cl)cc2C)CC1 [JO-02-31B]
Result :: 5 to 20%
